Value source: the supplement of paper PMC10567573

protein stability index listing for selected variants.
B1: SPOPL (parent)
chain: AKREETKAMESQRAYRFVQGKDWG

variants of: B1; test: protein stability index of a GFP-peptide fusion (GPS, HEK-293T) (PSI 1-6); higher = more stable; conditions: c terminus: a fixed tail appended;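 note: lentivirally expressed fusions sorted by FACS into six bins by GFP to DsRed ratio, PSI derived from sequencing read proportions per bin multiplied by bin number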
Readout Kind: protein stability index

Sequence	Readout Kind	Measured Result
ACREETKAMESQRAYRFVQGKDWG [K2C]	protein stability index	1.75
AKREECKAMESQRAYRFVQGKDWG [T6C]	protein stability index	3.06
AKREETKAMESQRAYRFVLGKDWG [Q19L]	protein stability index	2.15
AKRWETKAMESQRAYRFVQGKDWG [E4W]	protein stability index	2.59
AKREETKAMESQRAYRFIQGKDWG [V18I]	protein stability index	2.66
AKREETVAMESQRAYRFVQGKDWG [K7V]	protein stability index	2.83
AKREESKAMESQRAYRFVQGKDWG [T6S]	protein stability index	3.58
AKREETKMMESQRAYRFVQGKDWG [A8M]	protein stability index	2.87
AKREETKAMESQRMYRFVQGKDWG [A14M]	protein stability index	3.49
AKREETKAMEWQRAYRFVQGKDWG [S11W]	protein stability index	1.88
AKRELTKAMESQRAYRFVQGKDWG [E5L]	protein stability index	3.15
WKREETKAMESQRAYRFVQGKDWG [A1W]	protein stability index	2.61
AKREETKAMNSQRAYRFVQGKDWG [E10N]	protein stability index	3.34
AKREETKAMESQRAYRFVQDKDWG [G20D]	protein stability index	4.06
AKREETKAMESERAYRFVQGKDWG [Q12E]	protein stability index	3.65
AKREETKFMESQRAYRFVQGKDWG [A8F]	protein stability index	2.35
AKREETKAMEDQRAYRFVQGKDWG [S11D]	protein stability index	4.06
AKREETKAMESQDAYRFVQGKDWG [R13D]	protein stability index	4.47
AKREETKAMFSQRAYRFVQGKDWG [E10F]	protein stability index	2.37
AKRCETKAMESQRAYRFVQGKDWG [E4C]	protein stability index	2.35
AKREETKAMESQRAYRFVQGDDWG [K21D]	protein stability index	3.99
AIREETKAMESQRAYRFVQGKDWG [K2I]	protein stability index	2.71
AKREETKAMESQRAYREVQGKDWG [F17E]	protein stability index	4.61
AKREETKAMASQRAYRFVQGKDWG [E10A]	protein stability index	2.61
CKREETKAMESQRAYRFVQGKDWG [A1C]	protein stability index	2.14
AKREETKAMESQRAYRAVQGKDWG [F17A]	protein stability index	4.73
AKREYTKAMESQRAYRFVQGKDWG [E5Y]	protein stability index	1.71
AKREETKAMESQRAYRFTQGKDWG [V18T]	protein stability index	3.96
AKREETKAMESQRAYRFFQGKDWG [V18F]	protein stability index	3.32
AKREETKAMESQRAYVFVQGKDWG [R16V]	protein stability index	3.51
AKREETKAMESQRAYRFLQGKDWG [V18L]	protein stability index	3.51
AKREETLAMESQRAYRFVQGKDWG [K7L]	protein stability index	2.44
AKREETKAMESQRAYRFVAGKDWG [Q19A]	protein stability index	1.15
AKREETKAMESQRAYCFVQGKDWG [R16C]	protein stability index	3.77
AKSEETKAMESQRAYRFVQGKDWG [R3S]	protein stability index	3.34
AKREETKAMESQRAYRFVQGKGWG [D22G]	protein stability index	3.96
AKREETKAMESQRAYRFVQGKDVG [W23V]	protein stability index	4.72
AKRAETKAMESQRAYRFVQGKDWG [E4A]	protein stability index	2.96
AKREETKAMESQRAYRFVQIKDWG [G20I]	protein stability index	2.73
AWREETKAMESQRAYRFVQGKDWG [K2W]	protein stability index	2.48
AKREETKAMESQRAYRFVQFKDWG [G20F]	protein stability index	3.49
AKREATKAMESQRAYRFVQGKDWG [E5A]	protein stability index	2.67
AKREETKAMESQRAYRFVTGKDWG [Q19T]	protein stability index	2.73
AKTEETKAMESQRAYRFVQGKDWG [R3T]	protein stability index	2.88
AKREETKAMDSQRAYRFVQGKDWG [E10D]	protein stability index	3.02
AKRRETKAMESQRAYRFVQGKDWG [E4R]	protein stability index	2.44
